System: Staphylococcus aureus
Procedure Details: Antibacterial activity against methicillin-resistant Staphylococcus aureus ATCC 43300 after 18 to 24 hrs
Assay type: functional, organism-based
# IC50 annotations
Please reply with the bare figure in µM and do not write the unit itself.

Query :: Name the reported IC50 value associated with the compound CC(C)=CCc1c(O)ccc(C(=O)[C@H]2[C@H](c3c(O)cc(-c4cc5ccc(O)cc5o4)cc3O)C=C(C)C[C@H]2c2ccc(O)cc2O)c1O
Result :: 0.5

Turning now to a further record.
Query :: Name the reported IC50 value associated with the compound CC1=C[C@@H]2c3c(O)cc(-c4cc5ccc(O)cc5o4)cc3O[C@]3(c4ccc(O)c5c4OC(C)(C)C=C5)Oc4cc(O)ccc4[C@H](C1)[C@@H]23
Result :: 1.5

* * *

# pIC50 annotations
Tested on: Cryptococcus neoformans
Procedure Details: Antifungal activity against Cryptococcus neoformans ATCC 90113 after 68 to 72 hrs
Type: functional, organism-based
A value of pIC50 is the negative decimal logarithm of a concentration given in moles per litre.

Query :: Checklist item: pIC50 tested on Cryptococcus neoformans, entry CC(C)=CCc1c(O)ccc(C(=O)[C@H]2[C@H](c3c(O)cc(-c4cc5ccc(O)cc5o4)cc3O)C=C(C)C[C@H]2c2ccc(O)cc2O)c1O , value?
Result :: 5.27

Query :: Checklist item: pIC50 tested on Cryptococcus neoformans, entry C[C@@H]1[C@H](O)[C@@H](C)/C=C/C=C/C=C/C=C/C=C/C=C/C=C/[C@H](O[C@@H]2O[C@H](C)[C@@H](O)[C@H](N)[C@@H]2O)C[C@@H]2O[C@](O)(C[C@@H](O)C[C@@H](O)[C@H](O)CC[C@@H](O)C[C@@H](O)CC(=O)O[C@H]1C)C[C@H](O)[C@H]2C(=O)O , value?
Result :: 6.05
